Recorded unfolding free energy values for a group of variants are listed next.
B1: Ribonuclease HI, P0A7Y4 (parent)
chain: MLKQVEIFTDGSCLGNPGPGGYGAILRYRGREKTFSAGYTRTTNNRMELMAAIVALEALKEHCEVILSTDSQYVRQGITQWIHNWKKRGWKTADKKPVKNVDLWQRLDAALGQHQIKWEWVKGHAGHPENERCDELARAAAMNPTLEDTGYQVEV

Variants of: B1
TEST_CONTEXT: Escherichia coli (strain K12); pH 8.2; 25 °C; GdnHCl; CD; Tris-HCl 20 mM; reversible: yes; structure 2RN2; whole UniProt chain shown
READOUT_TYPE: unfolding free energy (kcal/mol)

VARIANT_IDENTIFIER	OBSERVED_MEASUREMENT
H127A	8.18
H124A	8.54
H62A	9.07
H83A	8.4

These data points were gathered from FireProtDB (doi:10.1016/0168-1656(93)90129-b).
